# Test system: NCI-H522 lung
# EXPERIMENT: NCI-60 one-dose screen, 48 h (100 = growth as untreated, 0 = no growth, -100 = all killed)
# STUDY_CONDITIONS: 10 µM unless noted
The panel holds about 83,000 compounds, 20% with a hit somewhere; the sample as a whole holds those more often.
Think of 70% as a floor: if growth stands on it or above, it is rule met; beneath it, rule not met.

{"SMI": "CC/C(=C(/c1ccc(Cl)cc1)c1ccc(OCCN)cc1)c1ccccc1", "CLASS_ASSIGNMENT": "rule met"}
{"SMI": "O=c1c2cc(-c3ccc(F)cc3F)ccc2n(Nc2ccccc2)c(=O)n1-c1cccc(C(F)(F)F)c1", "CLASS_ASSIGNMENT": "rule not met"}
{"SMI": "O=C1[C@@H]2Cc3c([nH]c4ccccc34)[C@H](c3ccc(Br)cc3)N2C(=O)CN1C1CCN(Cc2c(Cl)cccc2Cl)CC1", "CLASS_ASSIGNMENT": "rule met"}

Could you now look at the following molecule, please?
Asked: Entry "O=C1[C@@H]2Cc3c([nH]c4ccccc34)[C@@H](c3ccc(Cl)cc3)N2C(=O)CN1C1CCN(Cc2ccccc2)CC1" : is its growth no less than 70%?
Given back: rule not met
